Target: T1, CHIKV VLPs (Chikungunya virus, VLP strain not …, UniProt Q5XXP3)
T1 construct: also called CHIKV virus-like particles
T1 sequence (Q5XXP3 whole entry, looked up): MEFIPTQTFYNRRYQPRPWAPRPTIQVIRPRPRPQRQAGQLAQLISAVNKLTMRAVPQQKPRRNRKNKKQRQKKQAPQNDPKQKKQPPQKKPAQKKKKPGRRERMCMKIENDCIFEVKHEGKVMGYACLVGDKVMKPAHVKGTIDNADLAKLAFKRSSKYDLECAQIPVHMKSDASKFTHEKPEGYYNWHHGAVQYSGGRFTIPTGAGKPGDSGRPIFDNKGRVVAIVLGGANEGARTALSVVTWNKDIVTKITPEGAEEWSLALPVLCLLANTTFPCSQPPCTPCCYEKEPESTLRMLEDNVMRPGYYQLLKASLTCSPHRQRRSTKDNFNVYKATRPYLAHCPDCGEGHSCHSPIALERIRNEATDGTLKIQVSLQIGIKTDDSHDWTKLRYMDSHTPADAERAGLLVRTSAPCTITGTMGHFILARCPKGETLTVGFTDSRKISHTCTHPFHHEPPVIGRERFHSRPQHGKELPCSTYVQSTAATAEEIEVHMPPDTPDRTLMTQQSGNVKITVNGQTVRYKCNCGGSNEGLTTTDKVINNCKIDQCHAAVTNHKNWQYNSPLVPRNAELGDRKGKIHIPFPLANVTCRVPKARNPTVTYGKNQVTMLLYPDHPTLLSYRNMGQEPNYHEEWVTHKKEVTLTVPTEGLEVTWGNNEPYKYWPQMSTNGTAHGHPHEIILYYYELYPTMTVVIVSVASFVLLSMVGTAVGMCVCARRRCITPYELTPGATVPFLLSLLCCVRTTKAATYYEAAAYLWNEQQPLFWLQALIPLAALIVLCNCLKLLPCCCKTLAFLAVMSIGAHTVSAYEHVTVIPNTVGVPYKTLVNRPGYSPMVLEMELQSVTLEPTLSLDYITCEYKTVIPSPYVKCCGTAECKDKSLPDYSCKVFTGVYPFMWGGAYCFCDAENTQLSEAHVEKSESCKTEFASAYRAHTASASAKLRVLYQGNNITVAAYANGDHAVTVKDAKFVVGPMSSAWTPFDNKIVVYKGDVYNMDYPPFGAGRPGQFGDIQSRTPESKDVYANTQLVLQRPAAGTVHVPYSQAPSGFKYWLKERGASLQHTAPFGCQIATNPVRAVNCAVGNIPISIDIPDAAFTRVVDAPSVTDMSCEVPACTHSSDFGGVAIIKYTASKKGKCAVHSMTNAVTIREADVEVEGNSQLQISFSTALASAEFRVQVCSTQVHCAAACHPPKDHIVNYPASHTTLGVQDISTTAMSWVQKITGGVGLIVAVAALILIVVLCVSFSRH
Assay: MagPlex direct binding assay
Details: both partners purified

{"Binder": "CC3-hop (VHH, also called CC3 with the hop tail; original CC3-hop) VHH: EVQLQASGGGSVQAGGSLRLSCVTSQNLFEYYTMGWYRQVPGSQRERVALINNGGSTVAGSVEGRFTISRDHAKNSVYLQMNYLKPEDSAVYYCRAFGPADYWGQGTQVTVSS", "binding result": "binds"}
{"Binder": "CC3-m6hop (VHH, Theoretical pI 8.75) VHH: QVKLQASGGGSVQAGGSLRLSCVTSQNLFEYYTMGWYRQVPGSQRERVALINNGGSTVAGSVEGRFTISRDHAKNSVYLQMNYLKPEDSAVYYCRAFGPADYWGQGTQVTVSS", "binding result": "binds"}
{"Binder": "CC3-m5hop (VHH, Theoretical pI 8.40) VHH: EVKLQASGGGSVQAGGSLRLSCVTSQNLFEYYTMGWYRQVPGSQRERVALINNGGSTVAGSVEGRFTISRDHAKNSVYLQMNYLKPEDSAVYYCRAFGPADYWGQGTQVTVSS", "binding result": "binds"}
